- assay_info: qHTS assay to identify small molecule antagonists of the androgen receptor (AR) signaling pathway - cell viability counter screen (AID 743033; note: nearly all actives have a fitted effect of over 45% in size)
- test_parameters: AR-bla HEK293 viability, CellTiter-Glo luminescence, 16 h; series mostly up to 58.5 µM
Records with an inconclusive call do not appear. Activity calls are given as the source filed them. Calls come from the whole dose curve; as a rule, active = well fitted cell-killing curve with a large enough effect in the repeat runs; inconclusive = weak or mixed curves; inactive = no such curve, though single readings can be large or run the other way.

{"columns": ["compound", "outcome"],
 "data": [
  ["COc1ccc(C[C@H](C)NC[C@@H](O)c2ccc(O)c(NC=O)c2)cc1", "inactive"],
  ["CCCCC(F)(F)[C@@]1(O)CC[C@H]2[C@@H](CC(=O)[C@@H]2CCCCCCC(=O)O)O1", "inactive"],
  ["CC1CCC(NC(=O)N(CCCl)N=O)CC1 (centres undefined)", "inactive"],
  ["O=C(O)C1=C(CSc2nnnn2CS(=O)(=O)O)CS[C@@H]2[C@H](NC(=O)[C@H](O)c3ccccc3)C(=O)N12", "inactive"],
  ["CCC(C)(C)OC(=O)N[C@@H](Cc1c[nH]c2ccccc12)C(=O)N[C@@H](CCSC)C(=O)N[C@@H](CC(=O)O)C(=O)N[C@@H](Cc1ccccc1)C(N)=O", "inactive"],
  ["Nc1nc(=O)n([C@@H]2CS[C@H](CO)O2)cc1F", "inactive"],
  ["O.O=C([O-])CC([S-])C(=O)[O-].[Au+].[Na+].[Na+] (centres undefined)", "inactive"],
  ["CC#CCC(C)[C@H](O)/C=C/[C@@H]1[C@H]2C/C(=C/CCCC(=O)O)C[C@H]2C[C@H]1O (some centres undefined)", "inactive"],
  ["CNCC(O)c1ccc(OC(=O)C(C)(C)C)c(OC(=O)C(C)(C)C)c1 (centres undefined)", "inactive"]
]}
